B1: library; a variant is named by its letters at N, in order (parent)
chain: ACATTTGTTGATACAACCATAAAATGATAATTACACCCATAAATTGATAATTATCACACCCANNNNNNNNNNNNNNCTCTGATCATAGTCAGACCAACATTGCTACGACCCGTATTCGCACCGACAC

variants of: B1; assay: relative integration efficiency (T-RL orientation) vs wild-type transposon end (log2 (normalized fold change)); transposon end mutated: right end (5 bp flank + 75 bp right end); higher = more efficient transposition; conditions: with VchCAST RNA-guided transposition machinery (E. coli BL21(DE3) host, lacZ target)
Examples of variants with documented relative integration efficiency (log2) follow.

seq_text	relative integration efficiency (log2)
ACATTTGTTAATACAACCATAAAATGATAATTACACCCATAAATTGATAATTATCACACCCATAAATTGATATTGCCTCTGATCATAGTCAGACCAACATTGCTACGACCCGTATTCGCACCGACAC [TAAATTGATATTGC G10A]	0.115
ACATTTGTTGATACAACCATAAAATGATAATTACACCCATAAATTGATAATTATCACACCCATAAAAACTTATTGCCTCTGATCATAGTCAGACCAACATTGCTACGACCCGTATTCGCACCGACAC [TAAAAACTTATTGC]	-0.368
ACATTTGTTGATACAACCATAAAATGATAATTACACCCATAAATTGATAATTATCACACCCATAGATTGATATTGCCTCTGATCATAGTCAGACCAACATTGCTACGACCCGTATTCGCACCGACAC [TAGATTGATATTGC]	-0.557
ACATTTGTTGATACAACCATAAAATGATAATTACACCCATAAATTGATAATTATCACACCCATCCCGTGATATTGCCTCTGATCATAGTCAGACCAACATTGCTACGACCCGTATTCGCACCGACAC [TCCCGTGATATTGC]	-0.648
ACATTTGTTGATACAACCATAAAATGATAATGACACCCATAAATTGATAATTATCACACCCAATTTAACTATAACGCTCTGATCATAGTCAGACCAACATTGCTACGACCCGTATTCGCACCGACAC [ATTTAACTATAACG T32G]	-1.87
ACATTTGTTGATACAACCATAAAATGATAATTACACCCATAAATTGATAATTATCACACCCATAAATACATATTGCCTCTGATCATAGTCAGACCAACATTGCTACGACCCGTATTCGCACCGACAC [TAAATACATATTGC]	-0.637
ACATTTGTTGATACACCCATAAAATGATAATTACACCCATAAATTGATAATTATCACACCCATAAATTGATATTGCCTCTGATCATAGTCAGACCAACATTGCTACGACCCGTATTCGCACCGACAC [TAAATTGATATTGC A16C]	-0.0617
ACATTTGTTGATACAACCATAAAATGATAATTACACCCAAAAATTGATAATTATCACACCCAATTTAACTATAACGCTCTGATCATAGTCAGACCAACATTGCTACGACCCGTATTCGCACCGACAC [ATTTAACTATAACG T40A]	-1.01
ACATTTGTTGATACAACCATAAAATGATAATTACACCCATAAATTGATAATTACCACACCCATAAATTGATATTGCCTCTGATCATAGTCAGACCAACATTGCTACGACCCGTATTCGCACCGACAC [TAAATTGATATTGC T54C]	-0.0952
ACATTTGTTGATACAACCATAAAATGATAATTACACCCATAAATTGATAATTATCTCACCCATAAATTGATATTGCCTCTGATCATAGTCAGACCAACATTGCTACGACCCGTATTCGCACCGACAC [TAAATTGATATTGC A56T]	-0.4
ACATTTGTTGATACAACCATAAAATGATAATTACACCCATAAATTGATAATTATCACACCCATAAATTGTTATTGCCTCTGATCATAGTCAGACCAACATTGCTACGACCCGTATTCGCACCGACAC [TAAATTGTTATTGC]	-0.347
ACATTTGTTGATACAACCATAAAATGATAATTACACCCATAAATTGATAATTATCACACCCATAAATTGATTATGCCTCTGATCATAGTCAGACCAACATTGCTACGACCCGTATTCGCACCGACAC [TAAATTGATTATGC]	-0.138
ACATTTGTTGATACAACCATAAAATGATAATTACACCCATAAATTGATAATTATCACACCCATAAATTGATAATGCCTCTGATCATAGTCAGACCAACATTGCTACGACCCGTATTCGCACCGACAC [TAAATTGATAATGC]	0.111
